Experiment: in vivo
Conditions: Sprague-Dawley, rat, po, 10 mg/kg
MEASUREMENT LABEL: AUC (ng·h/mL)
Answers are plain numbers, in ng·h/mL.

Problem: Entry COc1ccc(CN2CCN(C3CC4(CCN(c5cc(Oc6cnc7[nH]ccc7c6)c(C(=O)NS(=O)(=O)c6ccc(NCC7(F)CCOCC7)c([N+](=O)[O-])c6)cc5F)CC4)C3)[C@H](c3ccccc3C(C)C)C2)cc1 has what AUC?
Solution: 3330

----------
Biological target: UniProt:P10415
Assay: Molecular level activity test of anti-apoptotic protein BCL2 (HTRF, binding to Bim peptide)
Conditions: HTRF, binding of BCL2 to Bim peptide; read-out: BCL2 nM (inhibitory activity, IC50)
MEASUREMENT LABEL: IC50

MOLECULE	IC50
CC(C)c1ccccc1[C@@H]1CCCN1C1CC2(CCN(c3cc(Oc4cnc5[nH]ccc5c4)c(C(=O)NS(=O)(=O)c4cc([N+](=O)[O-])c(NCC5(F)CCN(C(C)C)CC5)c5[nH]cnc45)cc3F)CC2)C1 [compound 022]	< 10 nM

In the following, a different molecule is considered.
Problem: Any idea what IC50 came out for CC(C)c1ccccc1[C@@H]1CCCN1C1CC2(CCN(c3ccc(C(=O)NS(=O)(=O)c4cc([N+](=O)[O-])c(NCC5(F)CCN(C6COC6)CC5)c5[nH]cnc45)c(Oc4cnc5[nH]ccc5c4)c3)CC2)C1 [compound 002] on UniProt:P10415?
Solution: < 10 nM

----------
Target: BCL2 (G101V) (Homo sapiens (Human), UniProt P10415, G101V)
Assay: Molecular level activity test of anti-apoptotic protein BCL2 (G101V) (HTRF, binding to Bim peptide)
Conditions: inhibition of BCL2 (G101V) binding to Bim peptide, read-out: BCL-2 (G101V)
So I've got a bunch of compounds here, and I need their IC50 values.

Worked examples, 3 compounds total:
COMPOUND	IC50
COc1ccc(CN2CCN(C3CC4(CCN(c5cc(Oc6cnc7[nH]ccc7c6)c(C(=O)NS(=O)(=O)c6cc([N+](=O)[O-])c(NCC7CCOCC7)c7c6OCCO7)cc5F)CC4)C3)[C@H](c3ccccc3C(C)C)C2)cc1 [compound 265]	< 10 nM
COc1cc(CN2CCN(C3CC4(CCN(c5cc(Oc6cnc7[nH]ccc7c6)c(C(=O)NS(=O)(=O)c6ccc(NCC7(F)CCOCC7)c([N+](=O)[O-])c6)cc5F)CC4)C3)[C@H](c3ccccc3C(C)C)C2)ccc1CN(C)C [compound 247]	< 10 nM
COc1ccc(CN2CCN(C3CC4(CCN(c5cc(Oc6cnc7[nH]ccc7c6)c(C(=O)NS(=O)(=O)c6ccc(NCC7(F)CCN(C8COC8)CC7)c([N+](=O)[O-])c6)cn5)CC4)C3)C(c3ccccc3C(C)C)C2)cc1 (stereo not shown) [compound 053]	< 10 nM

In the following, a different compound is considered.
Problem: Entry CC(C)c1ccccc1[C@@H]1CN(Cc2ccc3c(c2)OCO3)CCN1C1CC2(CCN(c3cc(Oc4cnc5[nH]ccc5c4)c(C(=O)NS(=O)(=O)c4ccc(NCC5(F)CCOCC5)c([N+](=O)[O-])c4)cc3F)CC2)C1 [compound 203] has what IC50?
Solution: < 10 nM

----------
Biological target: BCL2 (G101V) (Homo sapiens (Human), UniProt P10415, G101V)
Test: Molecular level activity test of anti-apoptotic protein BCL2 (G101V) (HTRF, binding to Bim peptide)
Conditions: inhibition of BCL2 (G101V) binding to Bim peptide, read-out: BCL-2 (G101V)
Procedure: The detection of the binding ability between anti-apoptotic protein BCL2 (G101V) and pro-apoptotic protein Bim was performed using Homogeneous Time-Resolved Fluorescence technology. […] After incubating at room temperature for 4 hours, the values were read using the Envision multifunctional microplate reader to detect the effect of the compound to be tested on the binding ability of BCL2 (G101V) to BIM protein peptides.
So I've got a bunch of compounds here, and I need their IC50 values.

SMILES RECORD	TARGET SYSTEM	IC50
COc1ccc(CN2CCN(C3CC4(CCN(c5cc(Oc6cnc7[nH]ccc7c6)c(C(=O)NS(=O)(=O)c6cc([N+](=O)[O-])c(NCC7(F)CCOCC7)c7[nH]cnc67)cc5F)CC4)C3)[C@H](c3ccccc3C(C)C)C2)cc1	BCL2 (G101V) (Homo sapiens (Human), UniProt P10415, G101V)	< 10 nM
COc1ccc(CN2CCN(C3CC4(CCN(c5cc(Oc6cnc7[nH]ccc7c6)c(C(=O)NS(=O)(=O)c6ccc(NC[C@H]7CC[C@](C)(O)CC7)c([N+](=O)[O-])c6)cc5F)CC4)C3)[C@H](c3ccccc3C(C)C)C2)cn1	BCL2 (G101V) (Homo sapiens (Human), UniProt P10415, G101V)	< 10 nM
COc1cc(CN2CCN(C3CC4(CCN(c5cc(Oc6cnc7[nH]ccc7c6)c(C(=O)NS(=O)(=O)c6ccc(NCC7(F)CCOCC7)c([N+](=O)[O-])c6)cc5F)CC4)C3)[C@H](c3ccccc3C(C)C)C2)ccc1CN1CCCC1	BCL2 (G101V) (Homo sapiens (Human), UniProt P10415, G101V)	< 10 nM
COc1ccc(CN2CCN(C3CC4(CCN(c5cc(Oc6cnc7[nH]ccc7c6)c(C(=O)NS(=O)(=O)c6cc([N+](=O)[O-])c(NCC7CCOCC7)c7c6OCO7)cc5F)CC4)C3)[C@H](c3ccccc3C(C)C)C2)cc1	BCL2 (G101V) (Homo sapiens (Human), UniProt P10415, G101V)	< 10 nM
COc1ccc(CN2CCN(C3CC4(CCN(c5cc(Oc6cnc7[nH]ccc7c6)c(C(=O)NS(=O)(=O)c6cc([N+](=O)[O-])c(NCC7CCOCC7)c7[nH]cnc67)cc5F)CC4)C3)[C@H](c3ccccc3C(C)C)C2)cc1	BCL2 (G101V) (Homo sapiens (Human), UniProt P10415, G101V)	< 10 nM
COc1ccc(CN2CCN(C3CC4(CCN(c5ccc(C(=O)NS(=O)(=O)c6cc([N+](=O)[O-])c(NCC7CCOCC7)c7[nH]cnc67)c(Oc6cnc7[nH]ccc7c6)c5)CC4)C3)[C@H](c3ccccc3C(C)C)C2)cc1	BCL2 (G101V) (Homo sapiens (Human), UniProt P10415, G101V)	< 10 nM

Hello, I would appreciate it if you could give IC50 for each entry below.
1. COc1ccc(CN2CCN(C3CC4(CCN(c5cc(Oc6cnc7[nH]ccc7c6)c(C(=O)NS(=O)(=O)c6ccc(NC[C@H]7CC[C@](C)(O)CC7)c([N+](=O)[O-])c6)cn5)CC4)C3)[C@H](c3ccccc3C(C)C)C2)cc1
2. CC(C)c1ccccc1[C@@H]1CN(Cc2ccc(F)cc2)CCN1C1CC2(CCN(c3cc(Oc4cnc5[nH]ccc5c4)c(C(=O)NS(=O)(=O)c4ccc(NCC5(F)CCOCC5)c([N+](=O)[O-])c4)cc3F)CC2)C1
3. CNCc1ccc(CN2CCN(C3CC4(CCN(c5cc(Oc6cnc7[nH]ccc7c6)c(C(=O)NS(=O)(=O)c6ccc(NCC7(F)CCOCC7)c([N+](=O)[O-])c6)cc5F)CC4)C3)[C@H](c3ccccc3C(C)C)C2)cc1

Solution:
1: < 10 nM; 2: < 10 nM; 3: < 10 nM

----------
Molecular target: BCL2 (D103Y) (Homo sapiens (Human), UniProt P10415, D103Y)
Assay: Molecular level activity test of BCL2 (D103Y) (HTRF, binding to Bim peptide)
Conditions: read-out: BCL-2 (D103Y) (nM) (inhibitory activity, IC50)
So I've got a bunch of compounds here, and I need their IC50 values.

COMPOUND	IC50
COc1ccc(CN2CCN(C3CC4(CCN(c5ccc(C(=O)NS(=O)(=O)c6cc([N+](=O)[O-])c(NCC7(F)CCOCC7)c7[nH]cnc67)c(Oc6cnc7[nH]ccc7c6)c5)CC4)C3)[C@H](c3ccccc3C(C)C)C2)cc1 [compound 261]	< 10 nM

Problem: Entry COc1ccc(CN2CCN(C3CC4(CCN(c5ccc(C(=O)NS(=O)(=O)c6cc([N+](=O)[O-])c(NCC7CCOCC7)c7[nH]cnc67)c(Oc6cnc7[nH]ccc7c6)c5)CC4)C3)[C@H](c3ccccc3C(C)C)C2)cc1 [compound 260] has what IC50?
Solution: < 10 nM

----------
So I've got a bunch of molecules here, and I need their IC50 values.
Molecular target: BCL2 (Homo sapiens (Human))
Test: Molecular level activity test of anti-apoptotic protein BCL2 (HTRF, binding to Bim peptide)
Settings: HTRF, binding of BCL2 to Bim peptide; read-out: BCL2 nM (inhibitory activity, IC50)

Worked examples, 5 molecules total:
MOLECULE	TARGET SYSTEM	IC50
CC(C)c1ccccc1[C@@H]1CN(Cc2cccc3c2OCCO3)CCN1C1CC2(CCN(c3cc(Oc4cnc5[nH]ccc5c4)c(C(=O)NS(=O)(=O)c4ccc(NCC5(F)CCOCC5)c([N+](=O)[O-])c4)cc3F)CC2)C1 [compound 208]	BCL2 (Homo sapiens (Human))	< 10 nM
COc1ccc(CN2CCN(C3CC4(CCN(c5ccc(C(=O)NS(=O)(=O)c6cc([N+](=O)[O-])c(NC[C@H]7CC[C@](C)(O)CC7)c7[nH]cnc67)c(N6CCOc7nc8[nH]ccc8cc76)c5)CC4)C3)C(c3ccccc3C(C)C)C2)cc1 (stereo partly drawn) [compound 089]	BCL2 (Homo sapiens (Human))	< 10 nM
COc1ccc(CN2CCN(C3CC4(CCN(c5cc(Oc6cnc7[nH]cc(F)c7c6)c(C(=O)NS(=O)(=O)c6ccc(NCC7(F)CCN(C(C)C)CC7)c([N+](=O)[O-])c6)cc5F)CC4)C3)C(c3ccccc3C(C)C)C2)cc1 (stereo not drawn) [compound 062]	BCL2 (Homo sapiens (Human))	< 10 nM
COc1ccc(CN2CCN(C3CC4(CCN(c5cc(Oc6cnc7[nH]ccc7c6)c(C(=O)NS(=O)(=O)c6cc([N+](=O)[O-])c(NCC7(F)CCOCC7)c7c6OCO7)cc5F)CC4)C3)[C@H](c3ccccc3C(C)C)C2)cn1 [compound 126]	BCL2 (Homo sapiens (Human))	< 10 nM
COc1ccc(CN2CCN(C3CC4(CCN(c5ccc(C(=O)NS(=O)(=O)c6cc([N+](=O)[O-])c(NCC7(F)CCOCC7)c7[nH]cnc67)c(Oc6cnc7[nH]ccc7c6)c5)CC4)C3)[C@H](c3ccccc3C(C)C)C2)cc1 [compound 261]	BCL2 (Homo sapiens (Human))	< 10 nM

Hello, I would appreciate it if you could give IC50 for each entry below.
1. COc1cc(CN2CCN(C3CC4(CCN(c5cc(Oc6cnc7[nH]ccc7c6)c(C(=O)NS(=O)(=O)c6ccc(NCC7(F)CCOCC7)c([N+](=O)[O-])c6)cc5F)CC4)C3)[C@H](c3ccccc3C(C)C)C2)cc2cc(C)oc12 [compound 202]
2. COc1ccc(CN2CCN(C3CC4(CCN(c5cc(Oc6cnc7[nH]ccc7c6)c(C(=O)NS(=O)(=O)c6ccc(NCC7(F)CCOCC7)c([N+](=O)[O-])c6)cn5)CC4)C3)[C@H](c3ccccc3C(C)C)C2)cc1 [compound 258]
3. COc1ccc(CN2CCN(C3CC4(CCN(c5cc(Oc6cnc7[nH]ccc7c6)c(C(=O)NS(=O)(=O)c6cc([N+](=O)[O-])c(NCC7(F)CCOCC7)c7ocnc67)cn5)CC4)C3)[C@H](c3ccccc3C(C)C)C2)cc1 [compound 133]
4. COc1ccc(CN2CCN(C3CC4(CCN(c5cc(Oc6cnc7[nH]ccc7c6)c(C(=O)NS(=O)(=O)c6cc([N+](=O)[O-])c(NC[C@H]7CC[C@](C)(O)CC7)c7occc67)cn5)CC4)C3)[C@H](c3ccccc3C(C)C)C2)cc1 [compound 139]

Solution:
["< 10 nM", "< 10 nM", "< 10 nM", "< 10 nM"]

Provenance of the data: patent US20250034135A1
